Values compiled from paper PMC5240567.

# target.system: T1, PREP1HD KKKK->AAAA (UniProt P55347 240-344, K331A;K333A;K334A;K335A)
# T1 sequence: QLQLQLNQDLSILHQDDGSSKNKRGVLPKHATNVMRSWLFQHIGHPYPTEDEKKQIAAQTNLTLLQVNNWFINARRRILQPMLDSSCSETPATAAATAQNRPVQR
# experiment: fluorescence polarization; FP and EMSA: 20 mM Na/K phosphate pH 7.2, 150 mM NaCl, 5% glycerol, 1 mM TCEP, room temperature (FP 9 nM DNA, 30 min; EMSA gel run at 4 C in 0.5x TBE); NMR: 20
# measurement.parameters: protein: recombinant; tags: GST cleaved (pGEX-6P); label: 5' 6-FAM (FP); unlabeled in EMSA and NMR
quantity.measured: Kd (µM)
Give your result in µM as a bare value.

Please give the documented Kd of PMH (dsDNA) DNA 1: AGTGATTGACAGATTC DNA 2: GAATCTGTCAATCACT
21.8
